Ref: PubChem BioAssay (Tox21)

Biological target: Estrogen receptor (Homo sapiens)
Assay: qHTS assay to identify small molecule antagonists of the estrogen receptor alpha (ER-alpha) signaling pathway (AID 743069)
Settings: HEK293 ER-alpha-UAS-bla, beta-lactamase ratio, antagonist mode; series mostly up to 69.4 µM
Calls of active or inactive are those of the source. Calls come from the whole dose curve; as a rule, active = well fitted curve in the direction sought with a large enough effect in the signal ratio in the repeat runs (not every such curve was filed as active); inconclusive = weak or mixed curves, or effect the other way; inactive = no such curve, though single readings can be large or run the other way; the % refers to the signal ratio.
Outcome codes: class 1 for active, class 0 for inactive

{"columns": ["Compound", "Category Label"],
 "data": [
  ["F/C(COc1ccc2c(c1)[nH]c1ccccc12)=C1/CN2CCC1CC2", "class 1"],
  ["O=C(CCl)c1ccc(Oc2ccc(C(=O)CCl)cc2)cc1", "class 0"],
  ["COc1cc(C[C@H](C)N)c(OC)cc1C", "class 0"],
  ["O=C1C(I)=CC(=C(c2cc(I)c(O)c(I)c2)c2ccccc2C(=O)O)C=C1I", "class 1"],
  ["C/C(=C\\c1csc(C)n1)[C@@H]1C[C@@H]2O[C@]2(C)CCC[C@H](C)[C@H](O)[C@@H](C)C(=O)C(C)(C)[C@@H](O)CC(=O)O1", "class 0"],
  ["CN1CCCC(=C(c2cccs2)c2cccs2)C1", "class 0"],
  ["CCNCC(O)c1cccc(O)c1 (stereo unspecified)", "class 0"],
  ["C[C@@H]([C@H](O)c1ccccc1)N(C)C", "class 0"],
  ["CCCCNC(C)(C)[P+](=O)O", "class 0"],
  ["C[C@@H]1[C@H](O)[C@@H](C)/C=C/C=C/CC/C=C/C=C/C=C/C=C/[C@H](O[C@H]2O[C@@H](C)[C@H](O)[C@@H](N)[C@H]2O)CC2O[C@](O)(C[C@@H](O)[C@H](O)CC[C@@H](O)C[C@@H](O)C[C@@H](O)CC(=O)O[C@H]1C)C[C@H](O)[C@H]2C(=O)O", "class 0"],
  ["CN(C)[C@H](Cc1ccccc1)c1ccccc1", "class 0"],
  ["[2H]C([2H])([2H])[C@H](N)Cc1ccccc1", "class 0"],
  ["ClC1=C(Cl)[C@]2(Cl)[C@@H]3[C@@H](Cl)[C@H]4O[C@H]4[C@@H]3C1(Cl)C2(Cl)Cl", "class 0"],
  ["CNC(=O)Oc1ccccc1C(=O)Nc1ccccc1", "class 0"],
  ["O=C1CN=C(c2ccccc2)c2cc(Cl)ccc2N1", "class 0"],
  ["CCCN1CCC[C@H](c2cccc(O)c2)C1", "class 0"],
  ["c1ccc(C2(c3ccccc3)CC2C2=NCCN2)cc1 (stereo unspecified)", "class 0"],
  ["CC(=O)[C@H]1CC[C@H]2[C@@H]3CC[C@@H]4C[C@H](O)CC[C@]4(C)[C@H]3CC[C@]12C", "class 0"],
  ["COc1ccc2c3c1O[C@H]1[C@@H](O)C=C[C@H]4[C@@H](C2)NCC[C@@]341", "class 0"],
  ["O=C1CCO1", "class 0"],
  ["COC(=O)[C@@H]1[C@H]2CC[C@@H](C[C@H]1OC(=O)c1ccccc1)N2C", "class 0"]
]}

----------
Assay: qHTS assay for identifying genotoxic compounds that show differential cytotoxicity against isogenic chicken DT40 cell lines with known DNA damage response pathways - Rad54/Ku70 mutant cell line (AID 743015); note: nearly all actives have a fitted effect of over 60% in size; note: potency is the fitted concentration of half-maximal effect
Conditions: DT40 Rad54/Ku70 mutant viability, CellTiter-Glo, 40 h; series mostly up to 66.8 µM
Inconclusive results are not listed. The source made the active and inactive calls. Calls come from the whole dose curve; as a rule, active = well fitted cell-killing curve with a large enough effect in the repeat runs; inconclusive = weak or mixed curves; inactive = no such curve, though single readings can be large or run the other way.
Readout Kind: Potency

{"columns": ["Compound", "Observed"],
 "data": [
  ["CNC(=O)OCC[N+](C)(C)C", "inactive"],
  ["CC1COC(Cn2cncn2)(c2ccc(Oc3ccc(Cl)cc3)cc2Cl)O1 (stereo unspecified)", "2.43 µM (active)"],
  ["C#CCN1CC(=O)N(COC(=O)C2C(C=C(C)C)C2(C)C)C1=O (stereo unspecified)", "inactive"],
  ["O=C1OC2(c3cc(Br)c(O)cc3Oc3c2cc(Br)c(O)[c]3[Hg])c2ccccc21 (stereo unspecified)", "10.1 µM (active)"],
  ["C=CCN(C1=NCCN1)c1c(Cl)cccc1Cl", "inactive"],
  ["O.O.O.O=C([O-])C(O)C(O)C(=O)[O-].O=C([O-])C(O)C(O)C(=O)[O-].[K+].[K+].[Sb].[Sb] (stereo unspecified)", "11.9 µM (active)"]
]}
